target: recombinant RORγ Ligand Binding Domain (LBD) protein (Homo sapiens (Human), UniProt P51449); test: Radio-Ligand RORγ Binding Assay (Assay 1); details: cell-free competition with 25-hydroxy [26,27-3H]-cholesterol; read-out: RORγ Binding Ki Range* (nM) (Assay 1)
Sequence (P51449 269-508): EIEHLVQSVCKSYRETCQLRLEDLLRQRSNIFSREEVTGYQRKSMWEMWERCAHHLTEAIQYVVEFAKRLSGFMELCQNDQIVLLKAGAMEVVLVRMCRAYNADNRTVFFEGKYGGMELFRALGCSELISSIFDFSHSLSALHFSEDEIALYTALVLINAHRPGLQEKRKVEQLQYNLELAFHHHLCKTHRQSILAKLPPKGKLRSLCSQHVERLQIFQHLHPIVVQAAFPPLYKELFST
In this section, each of the molecules is paired with its reported Ki.

Molecule | Ki
CCS(=O)(=O)c1ccc([C@H](CO)NC(=O)c2cnc3c(c2)CN(CC(F)(F)F)[C@H]3Cc2ccccc2)cc1 | < 100 nM
CCS(=O)(=O)c1ccc([C@H](CO)NC(=O)c2cnc3c(c2)CN(C[C@H]2CC[C@H](C(F)(F)F)CC2)C3C(F)(F)F)cc1 (stereo partly drawn) | < 100 nM
CCS(=O)(=O)c1ccc([C@@H](NC(=O)c2cnc3c(c2)CN(C[C@H]2CC[C@H](C(F)(F)F)CC2)[C@H]3C(C)C)[C@@H](C)O)cc1 (single isomer, unassigned) [Compound 42] | < 100 nM

###

target: recombinant RORγ Ligand Binding Domain (LBD) protein (Homo sapiens (Human), UniProt P51449); assay: Radio-Ligand RORγ Binding Assay (Assay 1); details: cell-free competition with 25-hydroxy [26,27-3H]-cholesterol; read-out: RORγ Binding Ki Range* (nM) (Assay 1)

Compound | Ki
CCS(=O)(=O)c1ccc([C@H](CO)NC(=O)c2cnc3c(c2)CN(C[C@@H]2CC[C@@H](C(F)(F)F)OC2)[C@H]3C(C)C)cc1 | < 100 nM
CCS(=O)(=O)c1ccc([C@@H](NC(=O)c2cnc3c(c2)CN(C[C@H]2CC[C@H](C(F)(F)F)CC2)[C@H]3C(C)C)[C@@H](C)O)cc1 [Compound 29] | 100 to 1000 nM
CC[C@H]1c2ncc(C(=O)N[C@@H](CO)c3ccc(S(=O)(=O)CC)cc3)cc2CN1C[C@H]1CC[C@H](C(F)(F)F)OC1 (single isomer, unassigned) | < 100 nM
CC[C@H]1c2ncc(C(=O)N[C@@H](CO)c3ccc(S(C)(=O)=O)cc3)cc2CN1C[C@H]1CC[C@H](C(F)(F)F)CC1 | < 100 nM
CCS(=O)(=O)c1ccc([C@H](NC(=O)c2cnc3c(c2)CN(C[C@H]2CC[C@H](C(F)(F)F)CC2)[C@H]3C(C)C)[C@H](C)O)cc1 (single isomer, unassigned) | < 100 nM
CCS(=O)(=O)c1ccc([C@H](CO)NC(=O)c2cnc3c(c2)CN(C[C@H]2CC[C@H](C(F)(F)F)CC2)[C@@H]3C)cc1 | > 1000 nM
CCS(=O)(=O)c1ccc([C@H](CO)NC(=O)c2cnc3c(c2)CN(C[C@H]2CC[C@H](C(F)(F)F)CC2)[C@H]3CC2CCOCC2)cc1 | < 100 nM
CCS(=O)(=O)c1ccc([C@H](CO)NC(=O)c2cnc3c(c2)CN(C)[C@@H]3Cc2ccccc2)cc1 (single isomer, unassigned) | 100 to 1000 nM
CCO[C@H]1CC[C@H](CN2Cc3cc(C(=O)N[C@@H](CO)c4ccc(S(=O)(=O)CC)cc4)cnc3[C@@H]2C(C)C)CC1 | < 100 nM
CC[C@H]1c2ncc(C(=O)N[C@@H](CO)c3ccc(S(=O)(=O)CC)cc3)cc2CN1C[C@@H]1CC[C@@H](C(F)(F)F)OC1 (single isomer, unassigned) | < 100 nM
CCS(=O)(=O)c1ccc([C@H](CO)NC(=O)c2cnc3c(c2)CN(C[C@H]2CC[C@H](C(F)(F)F)CC2)[C@H]3Cc2ccccc2)cc1 | < 100 nM
